System: HCT-116
Assay Overview: Cytotoxicity against human HCT116 cells assessed as cell growth inhibition after 48 hrs by sulforhodamine B assay
Type: functional, cell-based
Conditions: HCT-116, 48 h
// values below are reported IC50

- Smiles Str: "CC(=O)O[C@@H]1CC[C@@H](O)[C@@]2(CC(=O)O[C@@H]2/C=C(\\C)CCC=C(C)C)C1"
  Test Target: "HCT-116"
  IC50: "> 30 µM"
- Smiles Str: "CC(=O)O[C@@H]1C=CC(=O)[C@@](C/C=C(\\C)CCC=C(C)C)(CC(=O)O)C1"
  Test Target: "HCT-116"
  IC50: "> 57.5 µM"
- Smiles Str: "CC(=O)O[C@H]1C[C@]2(CC(=O)O[C@@H]2/C=C(\\C)CCC=C(C)C)C(OC(=O)c2ccccc2)=C[C@H]1N(C(=O)c1ccccc1)c1ccccc1"
  Test Target: "HCT-116"
  IC50: "> 30 µM"
- Smiles Str: "CC(=O)O[C@@H]1CC[C@@H](OC(C)=O)[C@@]2(CC(=O)O[C@@H]2/C=C(\\C)CCC=C(C)C)C1"
  Test Target: "HCT-116"
  IC50: "> 30 µM"
- Smiles Str: "CC(C)=CCC/C(C)=C/[C@H]1OC(=O)C[C@]12C[C@H](O)C=CC2=O"
  Test Target: "HCT-116"
  IC50: "2 to 2.61 µM"
